Entries annotated with measured IC50
Target: UniProt P07711
Sequence (P07711 114-333): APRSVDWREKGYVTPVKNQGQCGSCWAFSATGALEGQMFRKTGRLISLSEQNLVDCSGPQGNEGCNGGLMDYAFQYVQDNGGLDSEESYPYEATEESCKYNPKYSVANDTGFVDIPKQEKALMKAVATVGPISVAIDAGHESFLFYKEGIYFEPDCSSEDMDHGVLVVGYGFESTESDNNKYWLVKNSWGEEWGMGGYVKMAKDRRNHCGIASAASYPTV

# compound, IC50
data = [
    ("CC(C)(C)[C@H](NC(=O)C(F)(F)F)C(=O)N1C[C@H]2[C@@H]([C@H]1C(=O)NC(C#N)c1cccnc1)[C@H]1C=C[C@@H]2C1 (stereo partly drawn)", "≥ 10 µM"),
]

### Prompt Write down the reported IC50 of CC(C)(C)[C@H](NC(=O)C(F)(F)F)C(=O)N1C[C@H]2[C@@H]([C@H]1C(=O)NC(C#N)c1cncc3ccccc13)[C@H]1C=C[C@@H]2C1 (stereo partly drawn) , test system: UniProt P07711.
### Response ≥ 10 µM

### Prompt Write down the reported IC50 of CC(C)(C)[C@H](NC(=O)C(F)(F)F)C(=O)N1C[C@H]2[C@@H]([C@H]1C(=O)NC(C#N)c1cnc3ccccn13)[C@H]1C=C[C@@H]2C1 (stereo partly drawn) , test system: UniProt P07711.
### Response ≥ 10 µM
